Recorded values, source patent US8524705B2.

system: Aspergillus flavus; assay: Measurement of Minimum Inhibitory Concentrations (MICs), A. flavus; format: cell-based; settings: RPMI medium containing 2% glucose, 0.135M MOPS buffer, banded into grades
measure: MIC

Input line: Param readout = MIC; param system = Aspergillus flavus; param query = Cc1cc(C)nc(N2CCN(c3ccc(NC(=O)C(=O)c4c(-c5ccccc5)cc5n4CCCC5)cc3Cl)CC2)c1 ; response: value
Output line: < 1 µg/mL

Input line: Kindly state the measured MIC obtained for Cc1cc(C)nc(N2CCN(c3ccc(NC(=O)C(=O)c4c(-c5ccccc5)cc5n4CCCC5)c(C)c3)CC2)c1 with Aspergillus flavus.
Output line: < 1 µg/mL

Input line: Give Aspergillus flavus MIC for Cc1cc(OCCOc2ccc(NC(=O)C(=O)c3c(-c4ccccc4)cc4n3CCCC4)cc2)cc(C)n1
Output line: > 10 µg/mL

Input line: Enter reported MIC observed with Aspergillus flavus for Cc1cc(C)nc(N2CCN(c3ccc(NC(=O)C(=O)c4c(-c5ccccc5)cc5n4CCCC5)cc3COCCN(C)C)CC2)c1
Output line: > 10 µg/mL

Input line: # value lookup — system Aspergillus flavus, readout MIC, item Cc1cc(C)nc(N2CCN(c3ccc(NC(=O)C(=O)c4c(-c5ccccc5)cc5n4CCCC5)cc3)CC2)c1
Output line: < 1 µg/mL

Input line: Request - read-out MIC | tested on Aspergillus flavus | molecule Cc1cc(C)nc(N(C)CCN(C)c2ccc(NC(=O)C(=O)c3c(-c4ccccc4)cc4n3CCCC4)cc2)c1
Output line: < 1 µg/mL

Input line: Lab note: need MIC with Aspergillus flavus for entry O=C(Nc1cccc2ccccc12)C(=O)c1c(-c2ccccc2)cc2n1CCCC2 , please look it up.
Output line: < 1 µg/mL

---

test system: Aspergillus niger; assay: Measurement of Minimum Inhibitory Concentrations (MICs), A. niger; assay type: cell-based; conditions: YAG medium, 24 hrs at 35° C., >70% growth inhibition, banded into grades
measure: MIC

Input line: Param item = Cc1cc(C)nc(N2CCN(c3ccc(NC(=O)C(=O)c4c(C5CCOCC5)cc5n4CCCC5)cc3)CC2)c1 [Example 10] ; retrieve measured MIC.
Output line: < 1 µg/mL

Input line: Look up MIC for this molecule: Cc1cc(OCCOc2ccc(NC(=O)C(=O)c3c(-c4ccccc4)cc4n3CCCC4)cc2)cc(C)n1 [Example 14]
Output line: 1 to 10 µg/mL

Input line: Value lookup for MIC; key = Cc1cc(C)nc(N2CCN(c3ccc(NC(=O)C(=O)c4c(C5CCN(C)CC5)cc5n4CCCC5)cc3)CC2)c1 [Example 11]
Output line: > 10 µg/mL

Input line: Would you mind telling me what MIC value was observed for CCc1ccnc(N2CCN(c3ccc(NC(=O)C(=O)c4c(-c5ccccc5)cc5n4CCCC5)cc3)CC2)c1 [Example 17] ?
Output line: < 1 µg/mL

Input line: Item Cc1cc(C)nc(N2CCN(c3ccc(NC(=O)C(=O)c4c(-c5ccccc5)cc5n4CCCC5)cc3COCCCN3CCOCC3)CC2)c1 [Example 26] has what recorded MIC?
Output line: > 10 µg/mL

Input line: Which MIC is listed for Cc1cc(C)nc(N2CCC(O)(c3ccc(NC(=O)C(=O)c4c(-c5ccccc5)cc5n4CCCC5)cc3)CC2)c1 [Example 21] ?
Output line: < 1 µg/mL

Input line: Quick check: MIC of COCc1cc(NC(=O)C(=O)c2c(-c3ccccc3)cc3n2CCCC3)ccc1N1CCN(c2cc(C)cc(C)n2)CC1 [Example 23] ?
Output line: < 1 µg/mL

Input line: MIC lookup needed for CC(C)(C)CN1CCN(c2ccc(NC(=O)C(=O)c3c(-c4ccccc4)cc4n3CCCC4)cc2)CC1 [Example 2] , thanks.
Output line: < 1 µg/mL

Input line: Which MIC is listed for O=C(Nc1ccc2c(c1)OCC2)C(=O)c1c(-c2ccccc2)cc2n1CCCC2 [Example 32] ?
Output line: < 1 µg/mL

Input line: Fill in the blank: the reported MIC of Cc1cc(C)nc(N2CCN(c3ccc(NC(=O)C(=O)c4c(-c5ccccc5)cc5n4CCCC5)c(Cl)c3)CC2)c1 [Example 30] is ____.
Output line: < 1 µg/mL

Input line: // lookup MIC for O=C(Nc1ccc(N2CCN(c3ccc(CN4CCOCC4)cn3)CC2)cc1)C(=O)c1c(-c2ccccc2)cc2n1CCCC2 [Example 18]
Output line: < 1 µg/mL

Input line: Need MIC, item CCc1cccc(N2CCN(c3ccc(NC(=O)C(=O)c4c(-c5ccccc5)cc5n4CCCC5)cc3)CC2)n1 [Example 15]
Output line: < 1 µg/mL

Input line: Which value of MIC has been reported for O=C(NC1CCN(c2ccccc2)CC1)C(=O)c1c(-c2ccccc2)cc2n1CCCC2 [Example 12] in the records?
Output line: < 1 µg/mL

Input line: Find the recorded MIC belonging to Cc1cc(C)nc(N2CCN(c3ccc(NC(=O)C(=O)c4c(-c5ccccc5)cc5n4CCCC5)cc3COCCCN3CCN(C)CC3)CC2)c1 [Example 25] and report it.
Output line: > 10 µg/mL

Input line: Look up MIC: Cc1cc(C)nc(N2CCN(c3ccc(NC(=O)C(=O)c4c(-c5ccccc5)cc5n4CCCC5)cc3)CC2)c1 [Example 3]
Output line: < 1 µg/mL

Input line: What value of MIC has been recorded for this entry: Cc1cc(C)nc(N(C)CCCN(C)c2ccc(NC(=O)C(=O)c3c(-c4ccccc4)cc4n3CCCC4)cc2)c1 [Example 19]
Output line: < 1 µg/mL

Input line: Recorded MIC for Cc1cc(C)nc(N2CCN(c3ccc(NC(=O)C(=O)c4c(-c5ccccc5)cc5n4CCCC5)cc3Cl)CC2)c1 [Example 27] , please?
Output line: < 1 µg/mL

Input line: Any idea what its MIC is? The molecule is Cc1cc(C)nc(N2CCN(c3ccc(NC(=O)C(=O)c4c(-c5ccccc5)cc5n4CCCC5)cc3C)CC2)c1 [Example 22]
Output line: < 1 µg/mL

Input line: Tell me the measured MIC of Cc1cc(C)nc(N2CCN(c3ccc(NC(=O)C(=O)c4c(-c5ccccc5)cc5n4CCCC5)c(C)c3)CC2)c1 [Example 20] , please.
Output line: < 1 µg/mL

Input line: Can you share its MIC? I mean this molecule: COCc1cc(N2CCN(c3cc(C)cc(C)n3)CC2)ccc1NC(=O)C(=O)c1c(-c2ccccc2)cc2n1CCCC2 [Example 24]
Output line: < 1 µg/mL

Input line: Look up MIC for this molecule: Cc1cc(C)nc(N2CCN(c3ccc(NC(=O)C(=O)c4c(-c5ccccc5)cc5n4CCCC5)cc3COCCN(C)C)CC2)c1 [Example 29]
Output line: > 10 µg/mL

Input line: Please look up its MIC: COc1cc(C)cc(N2CCN(c3ccc(NC(=O)C(=O)c4c(-c5ccccc5)cc5n4CCCC5)cc3)CC2)n1 [Example 13]
Output line: < 1 µg/mL

Input line: Which MIC reading was recorded for the molecule C=C(C)CN1CCN(c2ccc(NC(=O)C(=O)c3c(-c4ccccc4)cc4n3CCCC4)cc2)CC1 [Example 1] ?
Output line: < 1 µg/mL

Input line: Report MIC for Cc1cc(C)nc(N2CCN(c3ccc(NC(=O)C(=O)c4c(-c5ccccc5)cc5n4CCCC5)cc3O)CC2)c1 [Example 31] please.
Output line: < 1 µg/mL

Input line: Given the entry Cc1cc(C)nc(N(C)CCN(C)c2ccc(NC(=O)C(=O)c3c(-c4ccccc4)cc4n3CCCC4)cc2)c1 [Example 7] , report its measured MIC.
Output line: < 1 µg/mL

Input line: Would you kindly share the measured MIC for Cc1cc(C)nc(OCCOc2ccc(NC(=O)C(=O)c3c(-c4ccccc4)cc4n3CCCC4)cc2)c1 [Example 9] ?
Output line: < 1 µg/mL

Input line: Name the recorded MIC for Cc1cc(C)nc(N2CCN(c3ccc(N(C)C(=O)C(=O)c4c(-c5ccccc5)cc5n4CCCC5)cc3)CC2)c1 [Example 6] .
Output line: > 10 µg/mL

Input line: Which measured MIC value corresponds to Cc1cc(C)nc(N2CCCN(c3ccc(NC(=O)C(=O)c4c(-c5ccccc5)cc5n4CCCC5)cc3)CC2)c1 [Example 5] ?
Output line: < 1 µg/mL

Input line: Fill in: MIC of O=C(Nc1cccc2ccccc12)C(=O)c1c(-c2ccccc2)cc2n1CCCC2 [Example 28] is ___
Output line: < 1 µg/mL
